# credit: PubChem BioAssay AID1259415

- Measurement description: qHTS Assay for inhibitors of the human cytomegalovirus (HCMV); further: on the % scale 0 is the no-effect control and ±100 the full control effect
- Measurement conditions: HFF cells, HCMV-luciferase reporter, 72 h; at 57.5 µM
Screen size: about 410,000 compounds; about 18,000 (4.4%) were called active. Roughly 7% stayed inconclusive and do not appear here. No stated cut-off is given here; in the data, active means activity change below about -60%; inconclusive means no clear call, values can overlap the other calls; inactive means above about -39%. The list comes from a sample in which actives are over-represented; it also holds close analogues and randomly drawn compounds.
Tick one outcome: 1 (active), 0 (inactive)

Study these solved cases before continuing.
1. CCOc1cc(-c2nnc(SCC(=O)NC3CCCCC3)nc2-c2ccc(OC)c(OCC)c2)ccc1OC
0
2. CCOC(=O)c1c(C)[nH]c(C)c1S(=O)(=O)N1CCCC(C(=O)NCc2ccccc2Cl)C1 (stereo unspecified)
0
3. NC(=O)c1ccc(NC(=O)COC(=O)C(Cc2ccccc2)NC(=O)c2ccccc2)cc1 (stereo unspecified)
0
4. CC1C(C)N(C(=O)CCl)c2ccccc2N1C(=O)CCl (stereo unspecified)
0
5. CCOCCCNC(=S)Nc1ccc2nc(N3CCN(CC)CC3)cc(C)c2c1
0
6. CN(CC(=O)Nc1ccc(C(N)=O)cc1)S(=O)(=O)c1ccc2c(c1)OCCO2
0
7. COc1cccc(-n2ccn(CC(=O)NCc3ccc(C)cc3)c(=O)c2=O)c1
0
8. CC1CN(C(=O)c2cc(COc3c(F)cccc3F)on2)CCN1C (stereo unspecified)
0
9. N#C/C(=C/c1cccc([N+](=O)[O-])c1)c1nnc2n1CCCCC2
1
10. c1ccc2sc(SNC3CCCCC3)nc2c1
0

stdin: What was the test verdict on `N#C/C(=C(\O)C(F)(F)F)c1nnc2n1CCCCC2` ?
stdout: 0

stdin: What was the test verdict on COc1cc(C2C(C(=O)OCCC#N)=C(C)NC3=C2S(=O)(=O)c2ccccc23)cc(OC)c1OC (stereo unspecified) ?
stdout: 0

stdin: What was the test verdict on CC1Oc2ccccc2N(Cc2cccnc2)C1=O (stereo unspecified) ?
stdout: 0

stdin: What was the test verdict on `Cc1cc2ccccc2n1CCNC(=O)c1ccc(F)cc1` ?
stdout: 0

stdin: What was the test verdict on `NC(=O)c1ccc(NC(=O)COC(=O)c2c3c(nc4ccccc24)/C(=C\c2ccc4c(c2)OCO4)CCC3)cc1` ?
stdout: 1

stdin: What was the test verdict on CC1CCCC(NC(=O)COC(=O)[C@@H]2CC(O)CN2S(=O)(=O)c2ccc3c(c2)OCCO3)C1C (stereo partly specified) ?
stdout: 0

stdin: What was the test verdict on `CCN1CCN(c2cc(C)c3cc(NC(=O)c4cc(Cl)ccc4OC)ccc3n2)CC1` ?
stdout: 1

stdin: What was the test verdict on O=C1NC(Nc2nc3ccccc3s2)(C(F)(F)F)C(=O)N1C1CCCCC1 (stereo unspecified) ?
stdout: 1

stdin: What was the test verdict on Cn1c(=O)c2c(n3c4ccccc4nc13)NC(=O)CC2c1cccc(Cl)c1 (stereo unspecified) ?
stdout: 0

stdin: What was the test verdict on CC1C(=O)N(Cc2ccccc2)c2ccccc2N1C(=O)c1ccccc1 (stereo unspecified) ?
stdout: 1

stdin: What was the test verdict on `COc1cc(Cl)c(C)cc1NC(=O)COC(=O)c1cc(SC)ccc1Cl` ?
stdout: 0
